log10 of Kd values for the compounds below.
MEASURED TARGET: bovine FBP (Bos taurus, UniProt P02702)
Sequence (P02702 20-234): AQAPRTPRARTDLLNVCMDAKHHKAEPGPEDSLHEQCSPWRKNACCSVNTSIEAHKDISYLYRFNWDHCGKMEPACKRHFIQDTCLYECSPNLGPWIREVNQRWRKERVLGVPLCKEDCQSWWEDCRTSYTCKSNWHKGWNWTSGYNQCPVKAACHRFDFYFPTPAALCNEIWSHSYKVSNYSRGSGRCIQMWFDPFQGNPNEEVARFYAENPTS
ASSAY EXPLANATION: Folate binding constant, procedure of Dunn and Foster
CONDITION DETAILS: read-out: Binding Constant; folate binding protein
MEASURED METRIC: log10 of Kd (log10 of the value in nM)

Nc1nc(O)c2c(n1)NCC(CCc1ccc(C(=O)NC(CCC(=O)O)C(=O)O)o1)C2 (centres unmarked)
2.76
Cc1nc2ccc(CN(C)c3ccc(C(=O)NC(CCC(=O)O)C(=O)O)s3)cc2c(=O)[nH]1 (centres unmarked)
2.73
Nc1nc(O)c2c(n1)NCC(CCC1CCC(C(=O)NC(CCC(=O)O)C(=O)O)CC1)C2 (centres unmarked)
1.76
Nc1nc(O)c2c(n1)NCC(CCc1ccc(C(=O)NC(CCC(=O)O)C(=O)O)s1)C2 (centres unmarked)
1.74
C#CCN(Cc1ccc2[nH]c(N)nc(=O)c2c1)c1ccc(C(=O)NC(CCC(=O)O)C(=O)O)cc1 (centres unmarked)
1.40
